Recorded GI50, one value per entry.
# System: MDA-MB-231
# assayProtocol: NCI tumour cell line growth inhibition, 48 h
Activity calls are given as the source filed them. Cut-off read from the data, not from the text of the source: active = GI50 up to about 1.1 µM and inactive = higher.

Below, 4 molecules whose answers are already recorded.
- molecule: "COc1cc2c(c(OC)c1OC)-c1ccc(OC)c(=O)cc1C(NC(=O)c1ccc(N=[N+]=[N-])cc1)CC2 (stereo unspecified)"
  observed: "0.0352 µM (active)"
- molecule: "CC(C)(C)C1=CC(=C2C=Cc3ccccc3O2)C=C(C(C)(C)C)C1=O"
  observed: "3.41 µM (inactive)"
- molecule: "CC(=O)N1C(OCc2ccccc2)CCN1c1ccccc1 (stereo unspecified)"
  observed: "> 10 µM (inactive)"
- molecule: "CO/N=[N+](\\[O-])NC(C)C"
  observed: "> 100 µM (inactive)"

So what does the record say about GI50 for COc1ccc(OC)c(/C=C/[N+](=O)[O-])c1 ?
1.87 µM (inactive)

So what does the record say about GI50 for CC(C)=CCN=C(N)N ?
> 100 µM (inactive)

---

# System: NCI-H460
# assayProtocol: NCI tumour cell line growth inhibition, 48 h
Active and inactive are the calls of the source. Cut-off read from the data, not from the text of the source: active = GI50 up to about 1.1 µM and inactive = higher.
resultType: GI50

Below, 3 compounds whose answers are already recorded.
- compound: "CCOC(=O)c1nc2ccc(C(F)(F)F)cc2[nH]c1=O"
  resultType: "GI50"
  observed: "> 100 µM (inactive)"
- compound: "CC(C)=Cc1cc(C)c2c(O)cc(C)c3c2c1C(C)=C(O)C3=O"
  resultType: "GI50"
  observed: "21.2 µM (inactive)"
- compound: "NC(=O)NC1C(C(=O)O)N(Cc2ccccc2)C(=O)N1Cc1ccccc1 (stereo unspecified)"
  resultType: "GI50"
  observed: "> 100 µM (inactive)"

So what does the record say about GI50 for Oc1ccccc1/C=N/c1ccc(-c2nc3ccccc3[nH]2)cc1 ?
54.8 µM (inactive)

So what does the record say about GI50 for O=C(O)c1oc2cccc3c2c1CCC3 ?
> 100 µM (inactive)

So what does the record say about GI50 for COc1cc(C2c3cc4c(cc3[C@@H](Nc3ccc(Oc5ccccc5)cc3)C3COC(=O)[C@H]23)OCO4)cc(OC)c1O (stereo partly specified) ?
0.0867 µM (active)

So what does the record say about GI50 for Cc1cccc(/C=C2/C(=O)Nc3ccccc32)n1 ?
16.9 µM (inactive)

So what does the record say about GI50 for COc1nc(/C=N/NC(N)=S)nc(OC)n1 ?
43.5 µM (inactive)

So what does the record say about GI50 for C#CCN(C(=O)C(F)(F)F)C(/C=C\C(=O)OC)(C(=O)OCC)C(=O)OCC ?
> 100 µM (inactive)

So what does the record say about GI50 for C/C(=C\CNc1ncnc2c1ncn2C1CCCCO1)COP(=O)(O)O (stereo unspecified) ?
> 100 µM (inactive)

So what does the record say about GI50 for CCOC(=O)/C(=C\n1c(=O)sc2ccccc21)C(=O)c1ccccc1 ?
> 100 µM (inactive)

---

# Tested on: SF-295
# assayProtocol: NCI tumour cell line growth inhibition, 48 h
Active and inactive are the calls of the source. Rule as the data show it: active = GI50 up to about 1.1 µM and inactive = higher.
Your reply should match one of these outcome classes. active, inactive

- molecule: "Cc1ccc(/N=N/c2c(C)c(C#N)c(=S)n(C3OC(CO)C(O)C(O)C3O)c2-c2ccccc2)cc1 (stereo not given)"
  labelClass: "inactive"
- molecule: "CN(C)CCn1c(=O)c2ccc(NCCN3CCNCC3)c3c(=O)c4ccccc4n(c1=O)c23"
  labelClass: "active"

Next:
Could you kindly confirm the outcome this assay logged for CCCNC(=O)Cn1c(-c2ccccc2)cc2ccccc21 ?
inactive

---

# System: UACC-257
# assayProtocol: NCI tumour cell line growth inhibition, 48 h
The source made the active and inactive calls. Rule as the data show it: active = GI50 up to about 1.1 µM and inactive = higher.
Your reply should match one of these outcome classes. t (active), f (inactive)

These solved cases illustrate the format of a correct answer.
- compound: "CC(c1ccccc1)N1CCN(C(C)c2ccccc2)CC1 (stereo not given)"
  labelClass: "f"
- compound: "O=C(O)c1oc2cccc3c2c1CCC3"
  labelClass: "f"

Could you kindly confirm the outcome this assay logged for Cc1cccc(C)c1NC(=O)C(Cc1c[nH]c2ccccc12)NC(=O)OCc1ccccc1 (stereo not given) ?
f

Could you kindly confirm the outcome this assay logged for CSc1nc(NC2OC(COC(C)=O)C(OC(C)=O)C(OC(C)=O)C2OC(C)=O)c(-c2csc(N)n2)c(=O)n1C (stereo not given) ?
f

Could you kindly confirm the outcome this assay logged for COc1ccc(/C=N/Nc2nc(=S)[nH]c3[nH]ncc23)cc1 ?
f

Could you kindly confirm the outcome this assay logged for NC(=S)Nc1c(S(N)(=O)=O)cc(S(N)(=O)=O)c(Cl)c1Cl ?
f

Could you kindly confirm the outcome this assay logged for COc1cc(C2c3cc4c(cc3[C@@H](Nc3ccc(Oc5ccccc5)cc3)C3COC(=O)[C@H]23)OCO4)cc(OC)c1O (stereo not given in full) ?
f

Could you kindly confirm the outcome this assay logged for c1ccc2c(c1)Nc1cccc3c1c-2nc1cc2ccccc2cc13 ?
f

Could you kindly confirm the outcome this assay logged for CC(C)(C)C1=CC(=C2C=Cc3ccccc3O2)C=C(C(C)(C)C)C1=O ?
f

Could you kindly confirm the outcome this assay logged for CC[C@@]1(O)C(=O)OCc2c1cc1n(c2=O)Cc2c-1nc1ccccc1c2/C=N/c1ccccc1N[C@@H]1c2cc3c(cc2[C@@H](c2cc(OC)c(O)c(OC)c2)[C@H]2C(=O)OC[C@@H]21)OCO3 ?
t

Could you kindly confirm the outcome this assay logged for S=C(S)N1CCN(c2cccc(Cl)c2)CC1 ?
f

Could you kindly confirm the outcome this assay logged for Cc1ccc(NC(=O)CSc2nnc(-c3ccc(/N=C\c4ccc(Cl)cc4)cc3)o2)cc1 ?
f

---

# Test system: ACHN
# assayProtocol: NCI tumour cell line growth inhibition, 48 h
Calls of active or inactive are those of the source. Rule as the data show it: active = GI50 up to about 1.1 µM and inactive = higher.
Recorded GI50, one value per entry.

- molecule: "COc1ccc2c(c1OC)C(=O)N/C2=C\\c1c(CCN(C)C)cc2c(c1OC)OCO2"
  GI50: "> 100 µM (inactive)"
- molecule: "O=Nn1c2ccccc2c2cc([N+](=O)[O-])ccc21"
  GI50: "14.1 µM (inactive)"
- molecule: "Brc1ccc2c(-c3csc(-c4c[nH]c5ccccc45)n3)c[nH]c2c1"
  GI50: "15.7 µM (inactive)"
- molecule: "O=c1[nH]c(=O)n(C2CC(O)C(CO)O2)cc1C#Cc1ccc(F)cc1 (stereo unspecified)"
  GI50: "> 100 µM (inactive)"
- molecule: "COC(=O)C(C)NP(=O)(N1CC1)N1CC1 (stereo unspecified)"
  GI50: "27.9 µM (inactive)"

Turning now to a further molecule:
Enter reported GI50 observed with ACHN for O=C(NCC(=O)N1CCOC1=O)OCc1ccccc1
> 100 µM (inactive)

---

# Tested on: MCF7
# assayProtocol: NCI tumour cell line growth inhibition, 48 h
Active and inactive are the calls of the source. Rule as the data show it: active = GI50 up to about 1.1 µM and inactive = higher.
Recorded GI50, one value per entry.

Below, 2 compounds whose answers are already recorded.
- compound: "COc1ccc2c(C)cc(N/N=C(\\C)C=O)nc2c1"
  GI50: "8.79 µM (inactive)"
- compound: "O=[N+]([O-])C(/C(Cl)=C(/Cl)N1CCCCC1)=C1\\NCCO1"
  GI50: "> 100 µM (inactive)"

So what does the record say about GI50 for COc1cc2c(c(OC)c1OC)-c1ccc(OC)c(=O)cc1C(NC(=O)c1ccc(N=[N+]=[N-])cc1)CC2 (stereo not drawn) ?
0.0144 µM (active)

So what does the record say about GI50 for COc1cc([N+](=O)[O-])ccc1N1C(=O)C2c3[nH]c4ccccc4c3C3CCC(C(C)(C)C)CC3C2C1=O (stereo not drawn) ?
> 100 µM (inactive)

So what does the record say about GI50 for COc1ccc(CNC2=N/C(=C\c3ccccc3Cl)C(=O)N2C)cc1 ?
25.5 µM (inactive)

So what does the record say about GI50 for CC(=O)OCOC(=O)CN(CC(=O)OCOC(C)=O)Cc1cc2c(cc1OC(C)=O)Oc1cc(OC(C)=O)c(CN(CC(=O)OCOC(C)=O)CC(=O)OCOC(C)=O)cc1C21OC(=O)c2ccccc21 ?
0.342 µM (active)

So what does the record say about GI50 for CC[C@]12C=CCN3CC[C@@]4(c5cc(Br)c(OC)cc5N(C)[C@H]4[C@@](O)(C(=O)NN)[C@@H]1O)[C@@H]32 ?
30.3 µM (inactive)

So what does the record say about GI50 for O=C(O)C1C2C=CC(O2)C1C(=O)NCc1cccnc1 (stereo not drawn) ?
> 100 µM (inactive)

---

# Test system: IGROV-1
# assayProtocol: NCI tumour cell line growth inhibition, 48 h
Active and inactive are the calls of the source. No stated cut-off is given here; in the data, active = GI50 up to about 1.1 µM and inactive = higher. Positions of bridges follow the written chain, without caps; N, C: chain ends. Where a SMILES comes first, the peptide text is derived from it. Non-standard residues stand in square brackets, D forms with d. Residues, ends and D or L forms follow the SMILES beside them. The star is where a group is joined. ξ: configuration not given here. *: point of attachment. X28 = O=C(/C=C/C=C/C=C/C=C/C=C/C(=O)*)NC1=C(O)CCC1=O; Pro(4R-Me) = C[C@H]1CN[C@H](C(=O)O)C1; NMeA = CN[C@@H](C)C(=O)O; ξF = NC(Cc1ccccc1)C(=O)O; Cbz = O=C(OCc1ccccc1)*; ξA = CC(N)C(=O)O
Your reply should match one of these outcome classes. active, inactive

These solved cases illustrate the format of a correct answer.
- compound: "O=c1oc2c/c(=C\\c3ccccn3)c(=O)c3cccc1c3-2"
  labelClass: "inactive"
- compound: "CCOC(=O)/C=C(/C(=O)OCC)n1cc(Cl)c(=O)n(CC(=O)OCC)c1=O"
  labelClass: "inactive"
- compound: "CCOC(=O)CCC(NC(=O)C(CC(=O)OC)NC(=O)OCc1ccccc1)C(=O)NC(CC(=O)OC)C(=O)NC(CCC(=O)OCC)C(=O)NC(CC(=O)OC)C(=O)NC(CCC(=O)OCC)C(=O)NC(CC(=O)OCC)C(=O)OCC (stereo not drawn) (Cbz-D(OMe)E(OEt)D(OMe)E(OEt)D(OMe)E(OEt)D(OEt)-OEt; configuration not given here)"
  labelClass: "inactive"
- compound: "O=C1[C@@H]2C(c3ccncc3)=NO[C@@H]2C(=O)N1c1ccc(Cc2ccc(N3C(=O)[C@H]4C(c5ccncc5)=NO[C@H]4C3=O)cc2)cc1"
  labelClass: "inactive"
- compound: "Cc1ccc(S(=O)(=O)Nc2nc3ccccc3c(=O)n2C2CCCCC2)cc1"
  labelClass: "inactive"
- compound: "Brc1ccc2c(-c3csc(-c4c[nH]c5ccccc45)n3)c[nH]c2c1"
  labelClass: "inactive"

Could you kindly confirm the outcome this assay logged for N=C1C(=N)c2ccccc2-c2ccccc21 ?
inactive

Could you kindly confirm the outcome this assay logged for Cc1ccc2nc(-c3nccn3C)cc(C(=O)NC(C)CN(C)C)c2c1 (stereo not drawn) ?
inactive

Could you kindly confirm the outcome this assay logged for Cc1cccc(C)c1NC(=O)C(Cc1c[nH]c2ccccc12)NC(=O)OCc1ccccc1 (stereo not drawn) ?
inactive

Could you kindly confirm the outcome this assay logged for CCOC(=O)/C=C(/C(=O)OCC)n1cc(C)c(=O)n(/C(=C/C(=O)OCC)C(=O)OCC)c1=O ?
inactive

Could you kindly confirm the outcome this assay logged for C[C@]12CC[C@H]3[C@@H](CC=C4C[C@@H](O)CC[C@@]43C)[C@@H]1C[C@H](N1CCOCC1)[C@@H]2O ?
inactive

Could you kindly confirm the outcome this assay logged for COC1/C(=C\C(=O)OC(C)(C)C)c2ccccc2N1C(C)=O (stereo not drawn) ?
inactive

Could you kindly confirm the outcome this assay logged for CCC(=C/[C@H](C)C/C=C/C(C)=C/[C@@H](C)C(=O)[C@@H](C)[C@H](O)[C@@H](C)CC)/C=C/[C@H]1CC=CC(=O)O1 ?
active

Could you kindly confirm the outcome this assay logged for CC(=O)NC(Cc1ccccc1)C(=S)N1CCCC1 (stereo not drawn) ?
inactive

Could you kindly confirm the outcome this assay logged for C[C@]12CCC(=O)O[C@H]1CCCCO2 ?
inactive

Could you kindly confirm the outcome this assay logged for CNc1cc(N)ccc1C(=O)N1CCC[C@H]1CO ?
inactive

Could you kindly confirm the outcome this assay logged for COc1ccc2c(c1)CCc1c-2nc2cc3c(cc2c1O)OCO3 ?
inactive

Could you kindly confirm the outcome this assay logged for N=C(N)NNC(=O)CCn1[nH]c(=O)c(Cl)c(Cl)c1=O ?
inactive

Could you kindly confirm the outcome this assay logged for COc1ccc(N[S+]([O-])c2cccc(C)c2)cc1 (stereo not drawn) ?
inactive

Could you kindly confirm the outcome this assay logged for CC1NC(=O)[C@H](C)N(C)C(=O)[C@@H]2CCCN2C(=O)[C@@H](NC(=O)C(Cc2ccccc2)NC(=O)/C=C/C=C/C=C/C=C/C=C/C(=O)NC2=C(O)CCC2=O)COC(=O)[C@@H]2C[C@@H](C)CN2C1=O (stereo partly drawn) (X28-[ξF]SP[NMeA][ξA][Pro(4R-Me)]; ester 2-C) ?
inactive

Could you kindly confirm the outcome this assay logged for CCOC(=O)C(O)(NC(=O)c1ccccc1F)C(F)(F)F (stereo not drawn) ?
inactive

Could you kindly confirm the outcome this assay logged for CN/C(=N\N)NS(=O)(=O)c1cc(C)c(Cl)cc1S ?
inactive

Could you kindly confirm the outcome this assay logged for CCOC(=O)C=C1CCN(C(=O)c2ccccc2)CC1 ?
inactive

Could you kindly confirm the outcome this assay logged for Cc1ccc(NCc2nnc3c(-c4ccccc4)nc4ccccc4n23)cc1 ?
inactive

Could you kindly confirm the outcome this assay logged for CCCC[S+]([O-])CC(CO)NC(=O)/C=C/c1c(C)[nH]c(=O)[nH]c1=O (stereo not drawn) ?
inactive

Could you kindly confirm the outcome this assay logged for S=C(N/N=C(/c1ccccc1)c1ccccn1)N(Cc1ccccn1)Cc1ccccn1 ?
active
